- protocol-summary: qHTS assay to test for compound auto fluorescence at 535 nm (green) in HEK293 cell free culture (AID 720682)
- experimental-setup: cell-free medium, green autofluorescence 485/535 nm; series mostly up to 91.3 µM
Active and inactive are the calls of the source. The call rests on the fitted dose curve; in most records, active means well fitted curve in the direction sought with a large enough effect in the repeat runs; inconclusive means weak or mixed curves; inactive means flat fitted curve, though single readings scatter.

[
  {
    "molecule": "C=C1C[C@H]2[C@@H]3C=C(C)C4=CC(=O)CC[C@]4(C)[C@H]3CC[C@]2(C)[C@@]1(OC(C)=O)C(C)=O",
    "outcome": "inactive"
  },
  {
    "molecule": "CC(=O)[C@@]1(O)CC[C@H]2[C@@H]3C[C@H](C)C4=CC(=O)C=C[C@]4(C)[C@@]3(F)[C@@H](O)C[C@@]21C",
    "outcome": "inactive"
  },
  {
    "molecule": "Oc1c(Cl)ccc(Cl)c1Cl",
    "outcome": "inactive"
  },
  {
    "molecule": "Nc1ccc2c(c1)C(=O)c1ccccc1C2=O",
    "outcome": "inactive"
  },
  {
    "molecule": "C/C=C/C(=O)N(CC)c1ccccc1C",
    "outcome": "inactive"
  }
]

====

- protocol-summary: qHTS assay to identify small molecule agonists of the farnesoid-X-receptor (FXR) signaling pathway - cell viability counter screen (AID 743218); further: nearly all actives have a fitted effect of over 45% in size
- experimental-setup: FXR-bla HEK293T viability, CellTiter-Glo luminescence, 16 h; series mostly up to 62.6 µM
Records with an inconclusive call do not appear. Active and inactive are the calls of the source. Calls come from the whole dose curve; as a rule, active = well fitted cell-killing curve with a large enough effect in the repeat runs; inconclusive = weak or mixed curves, or effect the other way; inactive = no such curve, though single readings can be large or run the other way.
endpoint: outcome

[
  {
    "molecule": "COC(=O)c1ccc(C)cc1",
    "value-measured": "inactive"
  },
  {
    "molecule": "CC(=O)O[C@]1(C(C)=O)CC[C@H]2[C@@H]3C=C(Cl)C4=CC(=O)CC[C@]4(C)[C@H]3CC[C@@]21C",
    "value-measured": "inactive"
  },
  {
    "molecule": "C=CCNCC=C",
    "value-measured": "inactive"
  }
]

====

- protocol-summary: Caspase-3/7 induction in CHO-K1 cells by small molecules, qHTS assay (AID 1346980); further: nearly all actives have a fitted effect of over 15% in size
- experimental-setup: CHO-K1 caspase-3/7 induction, Caspase-Glo luminescence, 17 h; series mostly up to 92.4 µM
Active and inactive are the calls of the source. Calls come from the whole dose curve; as a rule, active = well fitted activation curve with a large enough effect in the repeat runs; inconclusive = weak or mixed curves; inactive = flat fitted curve, though single readings scatter.
endpoint: outcome

[
  {
    "compound": "CN(C)C",
    "value-measured": "inactive"
  },
  {
    "compound": "CC1(C)C(C=C(Cl)Cl)C1C(=O)OCc1cccc(Oc2ccccc2)c1 (stereo unspecified)",
    "value-measured": "inactive"
  },
  {
    "compound": "c1ccc2ncccc2c1",
    "value-measured": "inactive"
  },
  {
    "compound": "CCCCCCC(C)O (stereo unspecified)",
    "value-measured": "inactive"
  },
  {
    "compound": "O=[Se](O)O",
    "value-measured": "inactive"
  },
  {
    "compound": "c1ccc2c(c1)ccc1cc3c(ccc4ccccc43)cc12",
    "value-measured": "inactive"
  },
  {
    "compound": "CC1(C)OC(=O)NC1=O",
    "value-measured": "inactive"
  },
  {
    "compound": "C[C@]12C=CC(=O)C=C1CC[C@H]1[C@@H]3C[C@@H](O)[C@](O)(C(=O)CO)[C@@]3(C)C[C@H](O)[C@@]12F",
    "value-measured": "inactive"
  },
  {
    "compound": "CC(=O)Oc1c(C)c(C)c2c(c1C)CC[C@@](C)(CCC[C@H](C)CCC[C@H](C)CCCC(C)C)O2",
    "value-measured": "inactive"
  },
  {
    "compound": "CC1(C)O[C@@H]2C[C@H]3[C@@H]4C[C@H](F)C5=CC(=O)C=C[C@]5(C)[C@@]4(F)[C@@H](O)C[C@]3(C)[C@]2(C(=O)CO)O1",
    "value-measured": "inactive"
  },
  {
    "compound": "Brc1nc2ccccc2s1",
    "value-measured": "inactive"
  }
]
